Experimental Target: uPAR (Homo sapiens)
Construct: Recombinant human uPAR^1–283 was expressed; made in house; host or cells: Drosophila melanogaster S2 cells
Sequence (Q03405 23-305): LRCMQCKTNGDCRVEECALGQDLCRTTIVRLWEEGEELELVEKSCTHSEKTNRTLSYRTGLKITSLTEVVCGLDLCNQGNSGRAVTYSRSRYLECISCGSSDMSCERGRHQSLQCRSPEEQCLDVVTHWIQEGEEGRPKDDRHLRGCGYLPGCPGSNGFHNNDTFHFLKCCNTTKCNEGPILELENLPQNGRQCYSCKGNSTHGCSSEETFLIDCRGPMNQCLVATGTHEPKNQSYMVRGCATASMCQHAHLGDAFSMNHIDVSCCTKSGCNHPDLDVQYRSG
Test Details: Nano-DSF thermal stability of uPAR•peptide complexes
Assay Setup: 15 µM uPAR, 30 µM peptide, PBS pH 7.4, n = 3
Protocol: The thermal stability of the uPAR•peptide complexes was analyzed with Nano-DSF using a Prometheus NT.48™ (Nanotemper). uPAR (15 µM) was mixed with twofold excess of peptide (30 µM) in PBS pH 7.4 and incubated for 15 min at RT to ensure complex formation. Samples containing either 15 µM uPAR or 30 µM of each peptide were included as controls. […] The excitation power was set to 50% (Ex.280 nm) and the fluorescence emission collected at 330 nm and 350 nm. […]
Non-standard residues stand in square brackets, D forms with d. Residues, ends and D or L forms follow the SMILES beside them. Cha = N[C@@H](CC1CCCCC1)C(=O)O
Quantity Kind: Tm (apparent melting temperature of uPAR•peptide complex)

Could you tell me which Tm (apparent melting temperature of uPAR•peptide complex) is on file for CC(C)C[C@H](NC(=O)[C@H](Cc1ccc(O)cc1)NC(=O)[C@@H](CCCNC(=N)N)NC(=O)[C@@H](CO)NC(=O)[C@H](Cc1ccccc1)NC(=O)[C@H](CC1CCCCC1)NC(=O)[C@H](CC(=O)O)NC(=O)CNC(=O)CNC(=O)[C@@H](CO)NC(=O)CNC(=O)[C@H](CCC(=O)O)NC(=O)[C@@H](N)CCC(=O)O)C(=O)N[C@@H](Cc1c[nH]c2ccccc12)C(=O)N[C@@H](CO)C(N)=O [compound 10] (H-EEG[dS]GGD[Cha]F[dS][dR]YLWS-NH2; N-terminus assumed) ?
~ 65 °C
